We begin with a simple list: items and their reported TGI.
# Test system: OVCAR-8 ovarian
# test.summary: NCI tumour cell line growth inhibition, 48 h

# compound, TGI
rows = [
    ("CCOc1ccncc1[N+](=O)[O-]", "> 100 µM"),
    ("COc1c[c]([Hg][O]C(C)=O)c(OC)c(NC(=O)CC(C)=O)[c]1[Hg][O]C(C)=O", "> 19.9 µM"),
    ("O=C(/C=C/c1ccccc1Cl)NC1C=Nc2ccc([N+](=O)[O-])cc2NC1 (stereo unspecified)", "> 100 µM"),
    ("[N-]=[N+]=Nc1cc(=O)[nH]nc1-c1ccccc1", "> 100 µM"),
    ("Cn1cc(C2=C(c3cccc(Br)c3)C(=O)NC2=O)c2ccccc21", "> 25 µM"),
]

Challenge: What value of TGI has been reported for the following compound? `COc1cc2c(OC)cc1CSCc1sc(C)c(c1Br)CSC2`
Response given: > 100 µM

---

TGI reference
# System: CCRF-CEM leukemia
# test.summary: NCI tumour cell line growth inhibition, 48 h

# compound, TGI
rows = [
    ("OCCCNc1nccc(-c2c(-c3ccc(F)cc3)nn3cc(C(F)(F)F)ccc23)n1", "> 25 µM"),
]

Challenge: What TGI appears in the records for this compound with CCRF-CEM leukemia? Cn1c(=O)oc2cc(C(O)CN3CCN(Cc4ccccn4)CC3)c(Cl)cc21 (stereo not drawn)
Response given: > 100 µM

Challenge: # query: TGI | item `CNS(=O)(=O)NNS(=O)(=O)c1ccc(Br)cc1` | system: CCRF-CEM leukemia
Response given: > 100 µM

---

# System: RXF 393 renal
# test.summary: NCI tumour cell line growth inhibition, 48 h
A collection of molecules and their measured TGI

# molecule, target.under.test, TGI
measured = [
    ("COc1ccc2c(c1)C(=O)OCCC2", "RXF 393 renal", "> 100 µM"),
]

Challenge: Name the reported TGI value associated with the molecule `[N-]=[N+]=Nc1cc(=O)n2c3c(cccc13)CCC2`
Response given: > 100 µM

Challenge: Which TGI reading was recorded for the molecule `COc1ncc(-c2ccc3ncnc(Nc4cccc(Cl)c4)c3c2)cc1NS(=O)(=O)C1CC1` ?
Response given: > 100 µM

---

Each entry below carries its recorded TGI.
# Tested on: SK-OV-3 ovarian
# test.summary: NCI tumour cell line growth inhibition, 48 h

# compound, result
data = [
    ("CC(=O)O[C@H]1CCC2[C@@H]3CCC4Nc5[nH]ncc5C[C@]4(C)C3CC[C@@]21C (stereo partly drawn)", "> 100 µM"),
]

Challenge: Could you tell me which TGI is on file for `Cc1cc(C)c(C(=O)c2nnc3ccccc3c2N)c(C)c1` ?
Response given: > 100 µM

Challenge: Fill in the blank: the reported TGI of [N-]=[N+]=NC1C(O)C(CO)OC1n1ccc(=O)[nH]c1=O (stereo not drawn) is ____.
Response given: > 875 µM

Challenge: Would you mind telling me what TGI value was observed for O=C(/C=C/c1ccccc1Cl)NC1C=Nc2ccc([N+](=O)[O-])cc2NC1 (stereo not drawn) ?
Response given: > 100 µM

Challenge: Please give the measured TGI for this compound: CN1C(=O)c2ccccc2OC12C=Cc1ccc(O)cc1O2 (stereo not drawn)
Response given: 53.5 µM

Challenge: Returns the measured TGI for the input compound. Input: `Fc1ccc(C(=C2CCN(CCc3ccc4[nH]c(=S)[nH]c4c3)CC2)c2ccc(F)cc2)cc1`
Response given: 36.8 µM

Challenge: What does the data say about its TGI? Entry: `CC(=O)Oc1ccccc1C(=O)Nc1ncc([N+](=O)[O-])s1`
Response given: > 80.3 µM

Challenge: Fill blank: measured TGI of the compound `CCn1c(=O)c2c(=O)c3c4c(oc3oc2c2ccccc21)C(=O)c1ccccc1C4=O` is ____.
Response given: > 100 µM

Challenge: Recorded TGI of `CCOC(=O)/C=C/[C@H](O[Si](CC)(CC)CC)C(C)(C)C` , please.
Response given: > 100 µM

Challenge: Would you mind telling me what TGI value was observed for `Cc1ccccc1N/C(=C(/C(Cl)=C(Cl)Cl)[N+](=O)[O-])n1nnc2ccccc21` ?
Response given: 40.7 µM
